All values here come from patent US11504382B2.

Test system: HBV
Test: HBV inhibition assay in HepAD38 cells (extracellular HBV DNA by direct qPCR)
Assay type: cell-based, Hepatitis B virus
Settings: 96 hours, 8-point dose-response curve, read-out: HBV inh EC50

{"compound": "Cc1cc(NC(=O)c2c3c(cn2C)S(=O)(=O)NC2CCN(C(=O)C45CC(CO4)C5)CC2CO3)ccc1F (racemic)", "EC50": "< 1000 nM"}
{"compound": "CCOC(=O)N1CC2COc3c(cn(C)c3C(=O)Nc3ccc(F)c(C(F)F)c3)S(=O)(=O)NC2C1 (single isomer, unassigned)", "EC50": "< 1000 nM"}
{"compound": "Cc1cc(NC(=O)c2c3c(cn2C)S(=O)(=O)NC2CN(C(=O)c4ncoc4C)CCC2CO3)ccc1F (racemic)", "EC50": "< 1000 nM"}

====

inhibition at 0.1 µM values for the compounds below.
System: HBV
Experiment: HBV inhibition assay in HepAD38 cells (extracellular HBV DNA by direct qPCR)
Assay type: cell-based, Hepatitis B virus
Conditions: Hepatitis B virus, 0.1 μM, 96 hours, relative to non-treated reference, read-out: Anti HBV Activity (conc μM)
recorded endpoint: inhibition at 0.1 µM

{"compound": "CCOC(=O)N1CC[C@H]2NS(=O)(=O)c3cn(C)c(C(=O)Nc4ccc(F)c(F)c4)c3OC[C@H]21", "recorded endpoint": "inhibition at 0.1 µM", "result": "< 50%"}
{"compound": "Cn1cc(C(=O)N2CC3COc4c(cn(C)c4C(=O)Nc4cc(F)c(F)c(F)c4)S(=O)(=O)NC3C2)cn1 (stereo not drawn)", "recorded endpoint": "inhibition at 0.1 µM", "result": "< 50%"}
{"compound": "Cc1noc(N2CC3COc4c(cn(C)c4C(=O)Nc4cc(F)c(F)c(F)c4)S(=O)(=O)NC3C2)n1 (stereo not drawn)", "recorded endpoint": "inhibition at 0.1 µM", "result": "> 50%"}
{"compound": "Cn1cc2c(c1C(=O)Nc1cc(F)c(F)c(F)c1)OCC1CN(CC(F)(F)F)CC1NS2(=O)=O (stereo not drawn)", "recorded endpoint": "inhibition at 0.1 µM", "result": "> 50%"}
{"compound": "Cn1cc2c(c1C(=O)Nc1cc(F)c(F)c(F)c1)OC[C@H]1CN(C(=O)COP(=O)(O)O)C[C@H]1NS2(=O)=O (relative stereo)", "recorded endpoint": "inhibition at 0.1 µM", "result": "< 50%"}
{"compound": "Cc1cc(NC(=O)c2c3c(cn2C)S(=O)(=O)NC2CN(C(=O)c4ccc(O)nc4)CC2CO3)ccc1F (stereo not drawn)", "recorded endpoint": "inhibition at 0.1 µM", "result": "< 50%"}
{"compound": "Cn1cc2c(c1C(=O)Nc1cc(F)c(F)c(F)c1)OCC1CN(C(=O)OC(C)(C)C)CC1NS2(=O)=O (racemic)", "recorded endpoint": "inhibition at 0.1 µM", "result": "> 50%"}
{"compound": "Cn1cc2c(c1C(=O)Nc1cc(F)c(F)c(F)c1)OCC1CN(S(C)(=O)=O)CC1NS2(=O)=O (racemic)", "recorded endpoint": "inhibition at 0.1 µM", "result": "> 50%"}
{"compound": "Cc1cc(NC(=O)c2c3c(cn2C)S(=O)(=O)NC2CN(CC(F)(F)F)CC2CO3)ccc1F (stereo not drawn)", "recorded endpoint": "inhibition at 0.1 µM", "result": "> 50%"}
